Test system: COLO 205 colon
test details: NCI tumour cell line growth inhibition, 48 h
Each entry below carries its reported TGI.

Answered examples (3):
compound: COc1cccc(/C=C2\N=C(c3ccccc3)OC2=O)c1
TGI: > 100 µM

compound: Nc1ncn([C@H]2CC(O)[C@@H](CO)S2)c(=O)n1 (stereo not given in full)
TGI: > 100 µM

compound: CC(C)=C[C@@H]1C[C@H](C)[C@H]2CC[C@H](C)c3c(O)c(OC4OC(C)C(O)C(O)C4O)c(C)c1c32 (stereo not given in full)
TGI: 27.9 µM

Reported TGI for COc1cc2c(c(OC)c1OC)C(=O)c1c(O)cc(C)c(OC)c1C2=O was > 100 µM

Reported TGI for O=C(Nc1ccn(C2CC(O)C(COC(c3ccccc3)(c3ccccc3)c3ccccc3)O2)c(=O)n1)c1ccccc1 (stereo not given) was 4.07 µM

Reported TGI for CCCCCCCCCCCCCCCCCc1nc(Cl)nc(Cl)c1Cl was > 100 µM

Reported TGI for CC(=O)OC1CCn2c1nc1cc([N+](=O)[O-])c(C)cc12 (stereo not given) was > 100 µM

Reported TGI for CSc1c(C(C)=O)c(O)n(-c2ccc(C)cc2)c(=O)c1C#N was > 100 µM

Reported TGI for C=C1C(=O)OC2CC(C)C(/C=C/C(C)=O)=CCC12 (stereo not given) was > 100 µM

Reported TGI for C[C@]12CC[C@H]3[C@@H](CC=C4C[C@@H](O)CC[C@@]43C)[C@@H]1C/C(=C\c1cccnc1)[C@@H]2O was > 100 µM

###

Each entry below carries its reported TGI.
System: HS 578T breast
test details: NCI tumour cell line growth inhibition, 48 h

molecule: CCSC[C@@H]1C[C@](O)(c2ccccc2)[C@@H](c2ccccc2)O1
TGI: > 97.1 µM

molecule: Clc1ccc(C=Nc2ccc(-c3nc4ccccc4[nH]3)cc2)cc1
TGI: > 100 µM

Reported TGI for CC1(C)N=C(C(N)=O)c2[nH]cnc2N1 was > 100 µM

###

Each entry below carries its reported TGI.
Tested on: RXF 393 renal
test details: NCI tumour cell line growth inhibition, 48 h

Answered examples (5):
compound: COc1cccc(C2CC(=O)Nc3c2c(C)nn3-c2nc3ccccc3[nH]2)c1OC (stereo not drawn)
TGI: 10.6 µM

compound: O=C(O)CNc1ccc2c(c1)Cc1cc(Br)ccc1-2
TGI: > 94.6 µM

compound: Clc1ccc(C=Nc2ccc(-c3nc4ccccc4[nH]3)cc2)cc1
TGI: > 100 µM

compound: Cc1ccc(C)c2c1C1CCCCC3(OCCCO3)C21O (stereo not drawn)
TGI: > 100 µM

compound: COC(=O)C1=NC(=S)NC(c2ccccc2)C1c1nc2ccccc2o1 (stereo not drawn)
TGI: > 50 µM

Reported TGI for CC(=O)c1csc2c1C(=O)c1ccccc1C2=O was 26.7 µM

Reported TGI for CNC(=O)OCc1cnc([N+](=O)[O-])n1C was > 100 µM

Reported TGI for COc1ccc(-c2nc3ccccc3c(=O)[nH]2)cc1 was > 100 µM

Reported TGI for Nc1nc(SCc2ccccc2Cl)c2ncn(C3OC(CO)C(O)C3O)c2n1 (stereo not drawn) was > 100 µM

Reported TGI for OC12CCC3(OC4CCCCO4)c4ccccc4C3C1c1ccccc12 (stereo not drawn) was > 100 µM

Reported TGI for CC(C)(Oc1ccc(-c2cccc3ccccc23)cc1)C(=O)O was > 100 µM

###

Test system: NCI-H460 lung
Respond with a class label; see active, inactive

compound: Cc1ccc(NCCNCC(C)(C)O)c2c(=O)c3ccc(Cl)cc3sc12
group: inactive

What call does the record list for [O]=[Sn]([CH]1CCCCC1)[CH]1CCCCC1 ? active

What call does the record list for CCn1c(-c2nonc2N)nc2ccccc21 ? inactive

What call does the record list for Clc1ccc(C=Nc2ccc(-c3nc4ccccc4[nH]3)cc2)cc1 ? inactive

What call does the record list for Cc1cc(N2CCC(N3CCCC3)CC2)nc(/N=C(\N)Nc2ccc(Cl)c(Cl)c2)n1 ? inactive

What call does the record list for COc1cc(-c2nc(-c3ccccc3)c(-c3ccccc3)[nH]2)cc(OC)c1O ? inactive

What call does the record list for CCCCNc1ncnc2c1cnn2-c1ccccc1 ? inactive

What call does the record list for CN(C)CCCN1c2ccccc2Sc2ccc(C(F)(F)F)cc21 ? inactive

###

Test system: SK-MEL-5 melanoma
test details: NCI tumour cell line growth inhibition, 48 h
Each entry below carries its reported GI50.

Answered examples (2):
compound: CCCCCCCCCCCC/C=C\CC[C@@H](O)[C@H](O)CC[C@H](O)[C@@H]1CC[C@@H](CCCCCCCC2=C[C@H](C)OC2=O)O1
GI50: 19.8 nM
--
compound: CC(C)=C[C@@H]1C[C@H](C)[C@H]2CC[C@H](C)c3c(O)c(OC4OC(C)C(O)C(O)C4O)c(C)c1c32 (stereo partly drawn)
GI50: 12000 nM

Let us move to another entry and its GI50.
Reported GI50 for CC[C@H](C)[C@H](NC(=O)C12C3C4C1C1C2C3C41NC)C(=O)N(C)[C@H](C[C@@H](OC(C)=O)c1nc(C(=O)N[C@@H](Cc2ccccc2)C[C@H](C)C(=O)OC)cs1)C(C)C (stereo partly drawn) was 159 nM

###

Test system: EKVX NSCLC
test details: NCI tumour cell line growth inhibition, 48 h
measurement label: TGI

Answered examples (4):
molecule: CCOC(=O)C(C)c1nc2cc(F)c(F)cc2[nH]c1=O (stereo not drawn)
target desc: EKVX NSCLC
TGI: > 100 µM

molecule: CNC(=O)OCc1cnc([N+](=O)[O-])n1C
target desc: EKVX NSCLC
TGI: > 100 µM

molecule: CCCC1C[C@H]2CCCCN2[C@H]2CCCN12 (stereo partly drawn)
target desc: EKVX NSCLC
TGI: > 100 µM

molecule: COC1OC2COC(=O)c3cc(O)c(O)c(O)c3-c3c(cc(O)c(O)c3O)C(=O)OC2C(O)C1O (stereo not drawn)
target desc: EKVX NSCLC
TGI: > 100 µM

Reported TGI for O=c1c(-c2nc3ccccc3c3ccccc3c2=O)nc2ccccc2c2ccccc12 was > 100 µM

Reported TGI for COc1cccc(NC(=O)CC(=O)NN)c1 was > 100 µM

Reported TGI for Cc1nc2c(C)ccc([N+](=O)[O-])c2c(NCCCN(C)C)c1C was > 100 µM

Reported TGI for Fc1ccccc1CN1COc2c(cc(Cl)c3cccnc23)C1 was 2.72 µM

Reported TGI for COc1cc(C2CC(c3ccccc3)=NN2C=O)ccc1Oc1ccnc2cc(Cl)ccc12 (stereo not drawn) was > 100 µM

Reported TGI for N#C[S-].[La+3].c1ccc(-c2ccccn2)nc1.c1ccc(-c2ccccn2)nc1.c1ccc(-c2ccccn2)nc1 was > 100 µM

Reported TGI for NC1=Nc2cc(C(F)(F)F)ccc2Sc2nc3ccccc3n21 was > 100 µM

Reported TGI for S=c1ssnc1-c1cc2ccccc2o1 was 30.8 µM

Reported TGI for CC(C)(O)C1COC2=C1C(=O)c1ccccc1C2=O (stereo not drawn) was > 100 µM

Reported TGI for c1ccc(C(Oc2noc3ccccc23)c2ccccc2)cc1 was > 100 µM

Reported TGI for CCc1ccc2c(c1)C(=O)c1c-2n(CCCN)c(=O)c2cc(OC)c(OC)cc12 was 3.44 µM

Reported TGI for Nc1nc(SCc2ccccc2CCl)c2[nH]cnc2n1 was 25.9 µM

Reported TGI for C=CCOCC1C2CCC3(OCCO3)C21 (stereo not drawn) was > 100 µM

Reported TGI for CCOC(=O)[C@@]12C[C@](/C=C/OC)(O[Si](C)(C)C)[C@@]13c1cc(OC)c(OC)cc1CCN3C(=O)C2=O was > 100 µM

Reported TGI for CC(C)(C)OC(=O)Cn1ncn(NC(=O)Cc2ccccc2)c1=S was > 10 µM

Reported TGI for COc1ccc(/C=C/C(=N\NC(=O)c2ccccc2)c2sc(Nc3ccc([N+](=O)[O-])cc3)nc2C)cc1OC was 91 µM

Reported TGI for CCCOC(=O)c1cc(O)c(O)c(O)c1 was > 100 µM

Reported TGI for Cc1cc(NCCCCCCCNc2cc(C)nc3cc(N)ccc23)c2ccc(N)cc2n1 was > 100 µM

Reported TGI for COC(=O)c1ccccc1C1CN=NC12Cc1ccc(C)cc1C2=O (stereo not drawn) was > 100 µM

###

Each entry below carries its reported TGI.
Tested on: NCI-H226 lung
test details: NCI tumour cell line growth inhibition, 48 h
# output: bare number, implied unit µM

Answered examples (3):
compound: CN(C)CCCN1c2ccccc2Sc2ccc(C(F)(F)F)cc21
TGI [µM]: 3.17

compound: Cc1cc(N2CCC(N3CCCC3)CC2)nc(/N=C(\N)Nc2ccc(Cl)c(Cl)c2)n1
TGI [µM]: 3.69

compound: CC(=O)Oc1ccc2cc(Oc3cc(Cl)c(Cl)cc3Cl)c(=O)oc2c1
TGI [µM]: 36.7

Let us move to another entry and its TGI.
Reported TGI for CC1OC(OC2C(O)CC(OC3C(O)CC(OC4CCC5(C)C(CCC6C5CCC5(C)C(C7=CC(=O)OC7)C(O)CC65O)C4)OC3C)OC2C)CC(O)C1O (stereo not given) was 2.14
